target: DPP-IV (Homo sapiens); construct: an extract of human colon carcinoma cell line Caco-2 is used as the DPP IV source; endogenous in cells; Nonidet-P40 solubilised extract; experiment: DPP-IV inhibition assay with Caco-2 cell extract, AFC substrate, fluorescence; details: extract of human colon carcinoma cell line Caco-2 as DPP IV source; 100 μM AFC substrate; 60 minutes, ambient temperature
Sequence (P27487 whole entry): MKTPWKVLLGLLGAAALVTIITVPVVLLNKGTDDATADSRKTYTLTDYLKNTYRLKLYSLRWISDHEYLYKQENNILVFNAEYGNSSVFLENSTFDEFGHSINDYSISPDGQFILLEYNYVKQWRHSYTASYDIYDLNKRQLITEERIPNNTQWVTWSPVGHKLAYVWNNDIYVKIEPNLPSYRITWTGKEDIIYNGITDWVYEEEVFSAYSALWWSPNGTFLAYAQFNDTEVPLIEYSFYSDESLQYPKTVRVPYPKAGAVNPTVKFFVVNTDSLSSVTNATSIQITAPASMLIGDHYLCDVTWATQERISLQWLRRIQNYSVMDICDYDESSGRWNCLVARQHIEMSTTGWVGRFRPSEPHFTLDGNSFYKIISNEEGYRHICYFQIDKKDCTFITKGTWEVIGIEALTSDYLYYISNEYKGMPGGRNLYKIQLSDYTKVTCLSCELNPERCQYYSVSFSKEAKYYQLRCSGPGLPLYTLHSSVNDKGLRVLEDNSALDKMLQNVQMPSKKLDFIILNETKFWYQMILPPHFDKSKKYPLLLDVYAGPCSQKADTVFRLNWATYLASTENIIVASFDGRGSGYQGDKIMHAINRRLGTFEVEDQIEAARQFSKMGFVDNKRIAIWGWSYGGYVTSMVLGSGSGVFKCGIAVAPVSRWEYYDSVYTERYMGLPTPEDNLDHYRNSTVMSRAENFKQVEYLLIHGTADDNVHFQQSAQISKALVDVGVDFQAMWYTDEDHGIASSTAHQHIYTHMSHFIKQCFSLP
Counter-ions that a name gives are not always drawn.
Provide the reported log10 of IC50 of each item.
Hey, these are logged values: log10 of IC50, nM being the unit before logging.

Look over these answered cases.
1) CC#CCn1c(N2CCC[C@@H](N)C2)nc2cnn(Cc3ccc(F)c4ccccc34)c(=O)c21 [Example 191, hydrochloride] ... 1.15
2) CC#CCn1c(N2CCC[C@@H](N)C2)nc2cnn(Cc3cn(C)c(=O)c4ccccc34)c(=O)c21 ... 1.00
3) CC#CCn1c(N2CCC[C@@H](N)C2)nc2cnn(Cc3nc4cc(C(F)(F)F)ccc4s3)c(=O)c21 [Example 195, hydrochloride] ... 1.23
4) CC#CCn1c(N2CCCC(N)C2)nc2cnn(Cc3ccc4nccnc4c3)c(=O)c21 (stereo not drawn) ... 0.08
5) CC#CCn1c(N2CCC[C@@H](N)C2)nc2cnn(Cc3ccc4nonc4c3)c(=O)c21 ... 0.99

Let's switch to this molecule now.
For DPP-IV (Homo sapiens), provide log10 of IC50 of `Cc1cc2ccccc2c(Cn2ncc3nc(N4CCC[C@@H](N)C4)n(Cc4ccccc4Cl)c3c2=O)n1` please.
0.73

Taken from patent US7109192B2.
